Molecular target: T1, biotinylated human DLL3 protein expressed as a human IgG1 fusion protein (human, UniProt Q9NYJ7 27-492, limits assumed, biotinylated)
T1 sequence: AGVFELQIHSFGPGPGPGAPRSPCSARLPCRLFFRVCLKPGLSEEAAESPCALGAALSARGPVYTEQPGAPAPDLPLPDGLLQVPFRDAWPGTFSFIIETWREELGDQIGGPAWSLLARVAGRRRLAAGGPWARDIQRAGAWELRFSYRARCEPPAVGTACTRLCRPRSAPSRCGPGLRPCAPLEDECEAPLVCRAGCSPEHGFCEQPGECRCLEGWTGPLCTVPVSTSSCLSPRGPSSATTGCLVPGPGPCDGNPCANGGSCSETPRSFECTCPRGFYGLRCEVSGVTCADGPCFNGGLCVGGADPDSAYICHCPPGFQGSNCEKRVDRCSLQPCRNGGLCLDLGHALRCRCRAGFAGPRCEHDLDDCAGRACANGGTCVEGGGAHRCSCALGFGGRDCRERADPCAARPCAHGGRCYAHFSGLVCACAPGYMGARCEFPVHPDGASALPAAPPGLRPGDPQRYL
Test: Octet BLI, single 50 nM
List of Kd values.
Quick note: unit goes after the number.

Could you tell me which Kd is on file for 2F09 anti-DLL3 trispecific protein (other, not shown: linker 1808, anti-albumin sdAb, linker 1808, anti-CD3 fragment, His6 1819) EVQLVESGGGLVQPGGSLTLSCVASGSTSSINAMAWYRRAPGKQRELVAGISSDGSKLYADSVKGRFTISRDNAKNSVYLQMNSLRAEDTAVYYCYYFRTVSGSSMRYWGQGTLVTVSS ? 6.5 nM

Subsequent entry: 3B01 anti-DLL3 trispecific protein (other, not shown: linker 1808, anti-albumin sdAb, linker 1808, anti-CD3 fragment, His6 1819) EVQLVESGGGLVQPGGSLTLSCAASGSSVSFLSMAWYRQAPGKKRELVAGISGDGSTDYIDSVKGRFTISRDNAKNSVYLQMNSLRAEDTAVYYCYAYRWTTRYTYWGQGTLVTVSS 10 nM

Cool, now 1E010 anti-DLL3 trispecific protein (other, not shown: linker 1808, anti-albumin sdAb, linker 1808, anti-CD3 fragment, His6 1819) EVQLVESGGGLVQPGGSLTLSCVASGSVSSINAMGWYRRAPGKQRELVAGISSDGSKVYIDSVKGRFTISRDNAKNSVYLQMNSLRAEDTAVYYCYYFRTVSGLSMRYWGQGTLVTVSS 5.7 nM

Here is another binder to look at.
Form field: reported Kd of 1A01 anti-DLL3 trispecific protein (other, not shown: linker 1808, anti-albumin sdAb, linker 1808, anti-CD3 fragment, His6 1819) EVQLVESGGGLVQPGGSLTLSCVASGFTSSINAMGWYRRAPGKQRELVAGISSDGSFVYADSVKGRFTISRDNAKNSVYLQMNSLRAEDTAVYYCYYFRHVSGSSMRYWGQGTLVTVSS 7 nM

These data points were gathered from patent US20240141072A1.
